# Test system: OXT-receptor compartment of the potassium depolarized rat myometrium
# measurement notes: Oil-immersion (stopped-transport) and washout time–response experiments on myometrium strips
# assay conditions: κ-difference of coherent N & D pairs; value shared by both peptides of the pair; C1,6OT/DC1,6OT pair uses predicted κ
Numbered stars: 1 amine (or outer) side, 2 acyl side, 3 side chain; on linkers, the order of the positions; unused ones are H or OH. Bridge positions count the residues as written; N and C are the ends. Square brackets hold non-standard residues; d marks the D form. Peptide text beside a SMILES is read from it. Abu(4-yl) = O=C([C@H](CC[*:3])N[*:1])[*:2]; X2 = O=C(CCC[*:2])[*:1]
assay metric: κ (N) − κ (D) (min⁻¹)
Unit min⁻¹ implied. Number only.

(Q) If you can, please state the reported κ (N) − κ (D) value of CC[C@H](C)[C@@H]1NC(=O)[C@H](Cc2ccc(O)cc2)NC(=O)CCSSC[C@@H](C(=O)N2CCC[C@H]2C(=O)N[C@@H](CC(C)C)C(=O)NCC(N)=O)NC(=O)[C@H](CC(N)=O)NC(=O)[C@H](CCC(=O)OC)NC1=O [DGOT] .
(A) 0.092

(Q) If you can, please state the reported κ (N) − κ (D) value of CC[C@H](C)[C@@H]1NC(=O)[C@H](Cc2ccc(O)cc2)NC(=O)[C@@H](N)CSSC[C@@H](C(=O)N2CCC[C@H]2C(=O)N[C@@H](CC(C)C)C(=O)NCC(N)=O)NC(=O)[C@H](CC(N)=O)NC(=O)[C@H](CCC(N)=O)NC1=O [OXT, Oxytocin, reference compound] .
(A) 0.088

(Q) If you can, please state the reported κ (N) − κ (D) value of CC[C@H](C)[C@@H]1NC(=O)[C@H](Cc2ccc(O)cc2)NC(=O)[C@@H](N)CSSC[C@@H](C(=O)N2CCC[C@H]2C(=O)N[C@@H](CC(C)C)C(=O)NNC(N)=O)NC(=O)[C@H](CC(N)=O)NC(=O)[C@H](CCC(N)=O)NC1=O [AOT, [9‐Azaglycine]‐OXT] .
(A) 0.076

(Q) If you can, please state the reported κ (N) − κ (D) value of CC[C@H](C)[C@@H]1NC(=O)[C@H](Cc2ccc(O)cc2)NC(=O)[C@@H](N)CSSC[C@@H](C(=O)N2CCC[C@H]2C(=O)N[C@@H](CC(C)C)C(=O)NCC(N)=O)NC(=O)[C@H](CC(N)=O)NC(=O)[C@H](CCC(=O)OC)NC1=O [GOT, [4‐Glutamic acid‐δ‐methylester]‐OXT] .
(A) 0.092

(Q) If you can, please state the reported κ (N) − κ (D) value of CC[C@H](C)[C@@H]1NC(=O)[C@H](Cc2ccc(O)cc2)NC(=O)CCCSC[C@@H](C(=O)N2CCC[C@H]2C(=O)N[C@@H](CC(C)C)C(=O)NCC(N)=O)NC(=O)[C@H](CC(N)=O)NC(=O)[C@H](CCC(N)=O)NC1=O [DC1OT, [1,6‐(2‐Amino‐4‐thiasuberic acid)]‐OXT] (YIQNCPLG-NH2; linker N-5 via X2) .
(A) 0.060

---
(Q) If you can, please state the reported κ (N) − κ (D) value of CC[C@H](C)[C@@H]1NC(=O)[C@H](Cc2ccc(O)cc2)NC(=O)CCSSC[C@@H](C(=O)N2CCC[C@H]2C(=O)N[C@@H](CC(C)C)C(=O)NNC(N)=O)NC(=O)[C@H](CC(N)=O)NC(=O)[C@H](CCC(N)=O)NC1=O [DAOT] .
(A) 0.076

(Q) If you can, please state the reported κ (N) − κ (D) value of CC[C@H](C)[C@@H]1NC(=O)[C@H](Cc2ccc(O)cc2)NC(=O)[C@@H](N)CCSC[C@@H](C(=O)N2CCC[C@H]2C(=O)N[C@@H](CC(C)C)C(=O)NCC(N)=O)NC(=O)[C@H](CC(N)=O)NC(=O)[C@H](CCC(N)=O)NC1=O [Peptide C1OT, [6,1‐Cystathionine]‐OXT] (H-[Abu(4-yl)]YIQNCPLG-NH2; thioether 1-6) .
(A) 0.060

(Q) If you can, please state the reported κ (N) − κ (D) value of CC[C@H](C)[C@@H]1NC(=O)[C@H](Cc2ccc(O)cc2)NC(=O)CCSSC[C@@H](C(=O)N2CCC[C@H]2C(=O)N[C@@H](CC(C)C)C(=O)NCC(N)=O)NC(=O)[C@H](CC(N)=O)NC(=O)[C@H](CCC(N)=O)NC1=O [DOT, [1‐β‐mercaptopropionic acid]‐OXT] .
(A) 0.088
